target: Kappa-type opioid receptor (Homo sapiens, UniProt P41145); experiment: Displacement of [3H]-Diprenorphine from kappa opiod receptor (unknown origin) expressed in CHO cells incubated for 90 mins in presence of peptidase inhibitors
Sequence (P41145 whole entry): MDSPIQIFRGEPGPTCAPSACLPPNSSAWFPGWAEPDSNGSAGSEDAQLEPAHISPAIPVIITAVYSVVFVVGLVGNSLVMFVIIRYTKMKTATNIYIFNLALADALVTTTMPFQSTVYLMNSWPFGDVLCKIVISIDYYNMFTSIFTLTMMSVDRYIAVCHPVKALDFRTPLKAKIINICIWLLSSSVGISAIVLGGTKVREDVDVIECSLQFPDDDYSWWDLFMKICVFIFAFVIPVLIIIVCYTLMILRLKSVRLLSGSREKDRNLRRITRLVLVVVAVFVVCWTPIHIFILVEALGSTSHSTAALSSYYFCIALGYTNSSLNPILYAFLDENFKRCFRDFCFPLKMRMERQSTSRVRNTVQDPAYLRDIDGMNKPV
TEST READOUT: Ki (nM)

1) CC(=O)N[C@@H](Cc1ccccc1)C(=O)N[C@H]1Cc2cccc(c2)OC/C=C\COc2cccc(c2)C[C@@H](C(=O)N[C@@H](CCCNC(=N)N)C(=O)N[C@@H](CC(C)C)C(=O)N[C@@H](CCCNC(=N)N)C(=O)N[C@@H](CCCNC(=N)N)C(=O)N[C@H](C)C(=O)N[C@@H](CCCNC(=N)N)C(=O)N2CCC[C@H]2C(=O)N[C@@H](CCCCN)C(N)=O)NC1=O 15.4
2) C=CCOc1ccc(C[C@H](NC(=O)[C@H](Cc2cccc(OCC=C)c2)NC(=O)[C@H](Cc2ccccc2)NC(C)=O)C(=O)N[C@@H](CCCNC(=N)N)C(=O)N[C@@H](CC(C)C)C(=O)N[C@@H](CCCNC(=N)N)C(=O)N[C@@H](CCCNC(=N)N)C(=O)N[C@H](C)C(=O)N[C@@H](CCCNC(=N)N)C(=O)N2CCC[C@H]2C(=O)N[C@@H](CCCCN)C(N)=O)cc1 41.2
3) C=CCOc1cccc(C[C@H](NC(=O)[C@H](Cc2ccccc2)NC(C)=O)C(=O)N[C@@H](Cc2cccc(OCC=C)c2)C(=O)N[C@@H](CCCNC(=N)N)C(=O)N[C@@H](CC(C)C)C(=O)N[C@@H](CCCNC(=N)N)C(=O)N[C@@H](CCCNC(=N)N)C(=O)N[C@H](C)C(=O)N[C@@H](CCCNC(=N)N)C(=O)N2CCC[C@H]2C(=O)N[C@@H](CCCCN)C(N)=O)c1 3.3
